- Test system: HCV proteins in Rep5.1 cells (replicon cell line)
- ASSAY_NOTES: Inhibitory activity of HCV: cell-based ELISA in replicon cell line Rep5.1 (decrease of HCV proteins)
- Design: species or system hepatitis C virus
- CONDITION_DESCRIPTION: Hepatitis C virus, 72 h, Rep5.1 cells, 72 hours with drug, decrease of HCV proteins measured by HCV antibody; Table 1; read-out: Level (IC50 values classified)
EXPERIMENTAL_ENDPOINT: IC50

IC50 of CC1=C(C(=O)OC(c2ccccc2)c2ccccc2C)CNC(=S)N1 (centres unmarked) [Compound 57] on HCV proteins in Rep5.1 cells (replicon cell line)?
1000 to 10000 nM

Next: CC1=C(C(=O)OCc2ccncc2)CNC(=S)N1 [Compound 155]
> 20000 nM

Next: CC1=C(C(=O)OCc2sccc2-n2cccc2)CNC(=S)N1 [Compound 220]
< 1000 nM

Next: CC1=C(C(=O)OCCc2ccsc2)CNC(=S)N1 [Compound 208]
< 1000 nM

Next: COc1cc(COC(=O)C2=C(C)NC(=S)NC2)cc(OC)c1 [Compound 81]
1000 to 10000 nM

Data origin, for the record: patent US20060116390A1
